Tested on: 786-0 renal
method.notes: NCI tumour cell line growth inhibition, 48 h
observation.type: GI50

Form field, GI50 with 786-0 renal, item O=C(c1ccc(C(F)(F)F)c(Cl)c1)N(Cc1ccc(Cl)cc1)c1ccc(-c2cc(C(F)(F)F)[nH]n2)c(O)c1 : 895 nM

Form field, GI50 with 786-0 renal, item O=C(COc1cccc(/C=C2\CSc3ccc(Cl)cc3C2=O)c1)c1ccc(Cl)cc1 : 14500 nM

Form field, GI50 with 786-0 renal, item O=c1c2ccccc2c(/C=N\NC2=NCCN2)c2oc3ccccc3n12 : 33900 nM

Form field, GI50 with 786-0 renal, item CN(C)CC(=O)Nc1ccc2ncnc(Nc3ccc(Oc4cccc(C(F)(F)F)c4)c(Cl)c3)c2c1 : 1550 nM

Form field, GI50 with 786-0 renal, item COC(=O)[C@]12CC[C@@H](C)[C@H](C)[C@@H]1C1=CC[C@@H]3[C@@]4(C)C[C@@H](OC(=O)/C=C/c5ccccc5)[C@H](O)[C@@](C)(CO)[C@@H]4[C@H](O)C[C@@]3(C)[C@]1(C)CC2 : 1870 nM

Form field, GI50 with 786-0 renal, item O=C1CC(c2ccccc2)Cc2nc3ccc(Br)cc3cc21 (stereo not drawn) : 667 nM

Form field, GI50 with 786-0 renal, item CN(C)CCCSc1ccccc1NC1=C(Cl)C(=O)C(Nc2ccccc2SCCCN(C)C)=C(Cl)C1=O : 1720 nM

Form field, GI50 with 786-0 renal, item COc1ccc(C(=NN=C(N)N)c2ccc(OC)cc2)cc1 : 3290 nM

---

Tested on: SF-268 CNS
method.notes: NCI tumour cell line growth inhibition, 48 h; in the data active = GI50 below about 0.43 µM; inactive = the rest
API: response.call in active, inactive

input: What call does the record list for O=C(COc1cccc(/C=C2\CSc3ccc(Cl)cc3C2=O)c1)c1ccc(Cl)cc1 ?
output: inactive

input: What call does the record list for O=[N+]([O-])c1ccc(C(Cl)C(Cl)c2ccc(C(Cl)C(Cl)c3ccc([N+](=O)[O-])cc3[N+](=O)[O-])cc2)c([N+](=O)[O-])c1 (stereo not given) ?
output: active

input: What call does the record list for COc1ccc(NC2=C(I)C(=O)c3ncccc3C2=O)cc1 ?
output: inactive

input: What call does the record list for NC1CCCCC1N.O=C1C=C/C(=C(/c2ccc(O)c(Br)c2)c2ccccc2S(=O)(=O)[O-])C=C1Br.O=C1C=C/C(=C(/c2ccc(O)c(Br)c2)c2ccccc2S(=O)(=O)[O-])C=C1Br.[Pt+4] ?
output: inactive

input: What call does the record list for O=c1cnnc(N/N=C/c2ccccc2O)[nH]1 ?
output: inactive

---

Tested on: OVCAR-4 ovarian
method.notes: NCI tumour cell line growth inhibition, 48 h
observation.type: GI50

# GI50 of CN(C)CC(=O)Nc1ccc2ncnc(Nc3ccc(Oc4cccc(C(F)(F)F)c4)c(Cl)c3)c2c1 = 1.96 µM

# GI50 of O=C(COc1cccc(/C=C2\CSc3ccc(Cl)cc3C2=O)c1)c1ccc(Cl)cc1 = 9.25 µM

# GI50 of Cc1cc(N2CCCCC2)nc(NC2CCCC(Nc3ccnc4cc(Cl)ccc34)C2)n1 (centres undefined) = 1.4 µM

# GI50 of Cn1cc(C2=C(c3cn(-c4ccccc4)c4ccccc34)C(=O)NC2=O)c2ccccc21 = 10.4 µM

# GI50 of COc1cc([N+](=O)[O-])c(OC)cc1-c1nc2sc(C)cn2c1/C(N)=N/C(=N)N = > 100 µM

# GI50 of COC(=O)c1cc2oc(/C=C3/SC(=S)N(N)C3=O)cc2n1Cc1ccccc1 = 4.68 µM

# GI50 of O=C1C(=C([O-])c2ccccc2)C(=O)c2ccccc21.O=C1C(=C([O-])c2ccccc2)C(=O)c2ccccc21.[Mn+2] = > 100 µM

# GI50 of Cc1ccc(C=C2C(Cl)=C(Cl)C(Cl)=C2Cl)cc1 = 1 µM

# GI50 of CC(C)[C@@](O)(c1ccc2cc(OC(F)F)c(OC(F)F)cc2c1)c1cn[nH]n1 = 17.1 µM

# GI50 of COc1ccc(NC2=C(I)C(=O)c3ncccc3C2=O)cc1 = 1.12 µM

# GI50 of C#Cc1cccc(Nc2ncnc3ccc(OCCCCNCCS(C)(=O)=O)cc23)c1 = 9.55 µM

# GI50 of O=Nc1c(-c2c(O)[nH]c3cc(Br)ccc23)[nH]c2ccccc12 = 1.23 µM

# GI50 of COc1ccc(C(=NN=C(N)N)c2ccc(OC)cc2)cc1 = 3.46 µM

# GI50 of COCCOC1=CC(=O)c2c(O)ccc(O)c2C1=O = 1.61 µM

---

Tested on: MOLT-4 leukemia
method.notes: NCI tumour cell line growth inhibition, 48 h
observation.type: log10(TGI) (log10 of the value in µM)
All values: base-10 log of TGI in µM.

# log10(TGI) of CNC1c2ccccc2C(=O)c2cc3c(cc21)OCCOCCOCCOCCO3 (stereo not drawn) = 1.96

# log10(TGI) of CC(C)(C)c1cc(/C=N/NC(=O)c2ccccc2NC(=O)c2cccs2)c(O)c(C(C)(C)C)c1 = 1.31

# log10(TGI) of COC(=O)c1ccc(/C=C(\c2ccc([N+](=O)[O-])o2)S(=O)(=O)c2ccc(NC(C)=O)cc2)o1 = 0.89

# log10(TGI) of O=C(NCCCNCCN1C(=O)c2cccc3cc([N+](=O)[O-])cc(c23)C1=O)c1cc(-c2ccccc2)nc2ccccc12 = 0.78

# log10(TGI) of COC(=O)[C@]12CC[C@@H](C)[C@H](C)[C@@H]1C1=CC[C@@H]3[C@@]4(C)C[C@@H](OC(=O)/C=C/c5ccccc5)[C@H](O)[C@@](C)(CO)[C@@H]4[C@H](O)C[C@@]3(C)[C@]1(C)CC2 = 0.86

# log10(TGI) of Clc1cc(Cl)c2cc3cccc[n+]3cc2c1Cl = 1.50

# log10(TGI) of CC(C)(c1ccccc1)c1cc(O)c(C(C)(C)c2ccccc2)cc1O = 0.89

# log10(TGI) of NC(=S)N/N=C1\c2ccccc2-c2c(F)c(F)c(F)c(F)c21 = 0.73

---

Tested on: SK-MEL-28 melanoma
method.notes: NCI tumour cell line growth inhibition, 48 h
observation.type: TGI

# TGI of O=S1(=O)c2ccccc2C(Nc2ccccc2)N1c1ccccc1 (stereo unspecified) = > 100 µM

# TGI of CC[C@@]1(O)C(=O)OCc2c1cc1n(c2=O)Cc2cc3ccccc3nc2-1 = 21.2 µM

# TGI of Cn1cc(C2=C(c3cn(-c4ccccc4)c4ccccc34)C(=O)NC2=O)c2ccccc21 = > 25 µM

# TGI of CNC1Cc2c[nH]c3cccc(c23)C12C=C(C)C(=O)O2 (stereo unspecified) = > 100 µM

# TGI of CN(C)CCCSc1ccccc1NC1=C(Cl)C(=O)C(Nc2ccccc2SCCCN(C)C)=C(Cl)C1=O = 3.12 µM

# TGI of O=C(NNC1=NCCCN1)c1ccco1 = > 100 µM

---

Test system: NCI-H460 lung
API: response.call in active, inactive

input: What call does the record list for CC(=O)CC/C=C(\C)[C@H](O)[C@H](C)C(=O)O[C@H]1C[C@H](C)C=C2C=C[C@@]3(C)O[C@@H](O)CC(=O)[C@]3(C)[C@H]21 ?
output: active

input: What call does the record list for C#Cc1cccc(Nc2ncnc3ccc(OCCCCNCCS(C)(=O)=O)cc23)c1 ?
output: inactive

input: What call does the record list for NC(=S)N/N=C1\c2ccccc2-c2c(F)c(F)c(F)c(F)c21 ?
output: inactive

input: What call does the record list for N#CC1=C(N)NC(=S)NC12Nc1ccccc1S2 (configuration not stated) ?
output: inactive

input: What call does the record list for C#CC(=O)Nc1cccc2c1cc(C)n2-c1nc2c(c(NCc3ccccc3)n1)CCCC2 ?
output: inactive

input: What call does the record list for COC(=O)[C@]12CC[C@@H](C)[C@H](C)[C@@H]1C1=CC[C@@H]3[C@@]4(C)C[C@@H](OC(=O)/C=C/c5ccccc5)[C@H](O)[C@@](C)(CO)[C@@H]4[C@H](O)C[C@@]3(C)[C@]1(C)CC2 ?
output: inactive

input: What call does the record list for CC(C)[C@@](O)(c1ccc2cc(OC(F)F)c(OC(F)F)cc2c1)c1cn[nH]n1 ?
output: inactive

---

Test system: HL-60(TB) leukemia
method.notes: NCI tumour cell line growth inhibition, 48 h
observation.type: TGI

# TGI of N#Cc1c(NC(=O)c2ccc(F)cc2)sc2c1CCCC2 = > 25 µM

# TGI of COc1cc(/C=C2\N=C(c3ccccc3)N(c3ccc(C(=O)c4ccccc4)cc3N3C(=O)/C(=C/c4ccc(O)c(OC)c4)N=C3c3ccccc3)C2=O)ccc1O = 16 µM

# TGI of O=Nc1c(-c2c(O)[nH]c3cc(Br)ccc23)[nH]c2ccccc12 = > 32.3 µM

# TGI of CC(C)(C)C(=O)Nc1cccc2oc(-c3ccccc3)cc12 = > 100 µM

# TGI of CCOC(=O)C1(C#N)C(=O)c2cc[n+](CC[n+]3ccc4c(c3)C(=O)C(C#N)(C(=O)OCC)C4=O)cc2C1=O (stereo not drawn) = > 100 µM

# TGI of CC(=O)OCC1OC(c2c(OC(C)=O)cc(C)c3c(=O)cc(/C(C(C)=O)=C(\C)O)oc23)C(OC(C)=O)C(OC(C)=O)C1OC(C)=O (stereo not drawn) = > 100 µM

# TGI of O=C(CCc1ccccc1)NS(=O)(=O)c1ccccc1 = > 100 µM

# TGI of C/C(=N\OCC(O)CNCCSCc1ccccc1)c1ccccc1Cl (stereo not drawn) = 50.1 µM

# TGI of COC(=O)C1=C(C)N2CCSC2(C)C(C(=O)OC)C1c1cccc(Cl)c1 (stereo not drawn) = 49.3 µM

# TGI of O=C(C=P(c1ccccc1)(c1ccccc1)c1ccccc1)CCl = 6.12 µM

# TGI of CC(=O)NCCCCN(CCCNC(C)=O)C(=O)CNS(=O)(=O)c1cccc2c(N(C)C)cccc12 = > 100 µM

# TGI of CC12CCC(=O)N1c1cncnc1N2 (stereo not drawn) = > 10 µM

# TGI of CCOC(=O)c1ccc(C(=O)n2ccnc2)[nH]1 = > 100 µM
